# System: PHKG2
# details: concentration: 1 μM, replicates: in singlicate; n = 1;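 note: KINOMEscan kinase panel screen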
value_kind: %Inh
Write down the value, and be sure its unit follows.

• Cn1cc(-c2ccc3c(c2)CCN3C(=O)Cc2ccccc2Cl)c2c(N)ncnc21 = 0%

Notebook: O=c1cc(N2CCOCC2)nc2n(Cc3cccc4ccccc34)ccn12 , %Inh read as 0%

Notebook: O=C(NCCCN1CCOCC1)c1cccc(Nc2nccc(Nc3ccc(Oc4ccccc4)cc3)n2)c1 , %Inh read as 14%

Notebook: CC(C)Oc1ccc2c(-c3ccnc(Nc4ccc(N5CCN(C)CC5)cc4)n3)cnn2n1 , %Inh read as 84%

---

# Test system: CDK2
# details: concentration: 1 μM, replicates: in singlicate; n = 1
value_kind: %Inh (%)
Provide the reading as a plain figure in %.

Worked examples, 5 compounds total:
* Cc1c(Cn2c(C)nn3c(=O)cc(N4CCOC(C)C4)nc23)cccc1C(F)(F)F (stereo not drawn) | 0
* Cc1nnc(-c2ccc3ncc(-c4ccc(S(C)=O)cc4)n3c2)o1 (stereo not drawn) | 0
* COc1cc(Nc2nccc(N3CCC(NC(=O)c4cccc(NC(C)=O)c4)C3)n2)cc(OC)c1OC (stereo not drawn) | 2
* Cc1nnc(-c2ccc3occ(-c4ccc(C(C)O)cc4)c3c2)o1 (stereo not drawn) | 5
* O=c1cc(N2CCOCC2)nc2n(Cc3cccc(F)c3)ccn12 | 7

Next:
The measured %Inh that [2H]C([2H])(c1cccc(C(F)(F)F)c1C)n1ccn2c(=O)nc(N3CCOCC3)cc12 showed for CDK2 is 0
